Target: FSHR (Homo sapiens, UniProt P23945)
Construct: expressed in transfected cells; host or cells: CHO (Cho-FSHR-LUC-1-1-43)
Sequence (P23945 18-695): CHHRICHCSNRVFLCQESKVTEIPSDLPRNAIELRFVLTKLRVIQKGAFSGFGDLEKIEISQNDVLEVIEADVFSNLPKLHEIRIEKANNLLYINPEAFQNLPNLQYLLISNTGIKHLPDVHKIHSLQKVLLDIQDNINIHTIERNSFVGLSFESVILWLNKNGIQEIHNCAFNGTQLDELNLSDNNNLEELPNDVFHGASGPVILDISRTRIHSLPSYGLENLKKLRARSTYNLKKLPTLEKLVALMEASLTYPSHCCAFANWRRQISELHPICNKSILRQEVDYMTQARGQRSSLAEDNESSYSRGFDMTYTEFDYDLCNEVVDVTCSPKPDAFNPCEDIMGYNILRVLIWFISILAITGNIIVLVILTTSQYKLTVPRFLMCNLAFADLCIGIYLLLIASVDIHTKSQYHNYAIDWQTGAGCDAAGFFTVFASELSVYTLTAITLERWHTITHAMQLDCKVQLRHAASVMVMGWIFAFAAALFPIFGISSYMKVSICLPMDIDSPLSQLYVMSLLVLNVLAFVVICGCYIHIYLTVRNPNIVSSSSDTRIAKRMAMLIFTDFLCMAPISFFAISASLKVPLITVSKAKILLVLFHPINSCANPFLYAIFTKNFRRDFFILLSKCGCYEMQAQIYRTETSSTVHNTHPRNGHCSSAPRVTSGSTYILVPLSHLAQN
Sequence (P01215 25-116 partner): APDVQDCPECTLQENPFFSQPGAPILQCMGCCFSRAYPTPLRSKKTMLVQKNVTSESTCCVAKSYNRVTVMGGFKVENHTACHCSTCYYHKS
Sequence (P01225 19-129 partner): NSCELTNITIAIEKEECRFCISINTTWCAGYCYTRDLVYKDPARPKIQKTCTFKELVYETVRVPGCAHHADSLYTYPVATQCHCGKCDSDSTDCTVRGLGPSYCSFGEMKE
Experiment: EC50 of cyclic AMP production in CHO FSHR cells + EC20 FSH (Assay A)
Format: cell-based
Settings: CHO FSHR cells + EC20 FSH; Table 2; read-out: Assay A EC50 of cyclic AMP production
pEC50: −log10 of the molar value.
property name: pEC50

CCN(C)Cc1cccc(CNC(=O)c2ccc(N3CCN(c4ccccc4C)CC3)c(NC(=O)c3ccco3)c2)c1 :: > 7.00
O=C(NCCCN1CCCC1=O)c1ccc(N2CCN(c3cccnc3)CC2)c(NC(=O)c2coc(C3CC3)n2)c1 :: 5.00 to 6.00
N#Cc1ccccc1N1CCN(c2ccc(C(=O)NCCCN3CCCC3=O)cc2NC(=O)c2coc(C3CC3)n2)CC1 :: 6.00 to 7.00
NC(=O)c1cccnc1N1CCN(c2ccc(C(=O)NCCCN3CCCC3=O)cc2NC(=O)c2coc(C3CC3)n2)CC1 :: < 5.00

Okay, now this molecule:
Item under review: Cc1ccccc1N1CCN(c2ccc(C(=O)NCc3cccc(C(=O)N(C)C)c3)cc2NC(=O)c2ccco2)CC1 . Reported pEC50?
6.00 to 7.00

====

Molecular target: FSHR (Homo sapiens, UniProt P23945)
Construct: expressed in transfected cells; host or cells: CHO (Cho-FSHR-LUC-1-1-43)
Assay: EC50 of cyclic AMP production in CHO FSHR cells + EC20 FSH (Assay A)
Assay type: cell-based
Conditions: CHO FSHR cells + EC20 FSH; Table 2; read-out: Assay A EC50 of cyclic AMP production
property name: EC50

Take a look at these entries with their results.
Cc1ccccc1N1CCN(c2ccc(C(=O)NCCc3cccc(C(N)=O)c3)cc2NC(=O)c2coc(C3CC3)n2)CC1 :: 100 to 1000 nM
Cc1ccccc1N1CCN(c2ccc(C(=O)NC[C@@H](N)c3ccccc3)cc2NC(=O)c2coc(C3CC3)n2)CC1 :: 100 to 1000 nM
Cc1ccc(C(=O)Nc2cc(C(=O)NCCCN3CCCC3=O)ccc2N2CCN(c3ccccc3OC(F)(F)F)CC2)o1 :: 1000 to 10000 nM
Cc1ccccc1N1CCN(c2ccc(C(=O)NCC(O)CN3CCCC3)cc2NC(=O)c2ccco2)CC1 (stereo not shown) :: 100 to 1000 nM
Cc1cccnc1N1CCN(c2ccc(C(=O)NCCCN3CCCC3=O)cc2NC(=O)c2coc(C3CC3)n2)CC1 :: < 100 nM
Cc1ccccc1N1CCN(c2ccc(C(=O)NCCCc3c[nH]cn3)cc2NC(=O)c2coc(C3CC3)n2)CC1 :: 100 to 1000 nM

Okay, now this compound:
Lab note: need EC50 for Cc1ccccc1N1CCN(c2ccc(C(=O)N[C@@H]3CCCC[C@@H](O)[C@H]3O)cc2NC(=O)c2coc(C3CC3)n2)CC1 on FSHR (Homo sapiens, UniProt P23945), anyone have it?
100 to 1000 nM

====

Target: FSHR (Homo sapiens, UniProt P23945)
Construct: expressed in transfected cells; host or cells: CHO (Cho-FSHR-LUC-1-1-43)
Assay: EC50 of cyclic AMP production in CHO FSHR cells + EC20 FSH (Assay A)
Type: cell-based
Settings: 1 h; 5 μM; effect relative to maximum response of the FSH standard; Table 1
Method: Example 10: EC50 of Cyclic AMP Production in CHO FSHR Cells+EC20 FSH (Assay A) 2500 Cho-FSHR-LUC-1-1-43 cells were plated per well in 5 μl of phenol red free DMEM/F12+1% FBS. Cells were plated in 384 well, solid white low volume plates (Greiner 784075) by Multidrop. […] The plates were read on Envision using the cAMP HTRF—low volume 384 well protocol. The readout was the calculated fluorescence ratio (665 nm/620 nm). […]
property name: activation at 5 µM (%)

I: Cc1ccccc1N1CCN(c2ccc(C(=O)NCCCN3CCCC3=O)cc2NC(=O)c2cccc3c2CCCC3)CC1 [Compound 112]
II: CCOC(=O)N1CCN(c2ccc(C(=O)NCCCN3CCCC3=O)cc2NC(=O)c2ccco2)CC1 [Compound 62]
When I and II are compared, which has the higher number for activation at 5 µM? Record your answer as the label of the chosen record.
II
